# Experimental Target: human recombinant SSAO/VAP-1 (Homo sapiens, UniProt Q16853)
# Construct: a cloned cDNA template corresponding to residues 34-763 of human SSAO/VAP-1; TEV cleavage site (N)
# Sequence (Q16853 34-763): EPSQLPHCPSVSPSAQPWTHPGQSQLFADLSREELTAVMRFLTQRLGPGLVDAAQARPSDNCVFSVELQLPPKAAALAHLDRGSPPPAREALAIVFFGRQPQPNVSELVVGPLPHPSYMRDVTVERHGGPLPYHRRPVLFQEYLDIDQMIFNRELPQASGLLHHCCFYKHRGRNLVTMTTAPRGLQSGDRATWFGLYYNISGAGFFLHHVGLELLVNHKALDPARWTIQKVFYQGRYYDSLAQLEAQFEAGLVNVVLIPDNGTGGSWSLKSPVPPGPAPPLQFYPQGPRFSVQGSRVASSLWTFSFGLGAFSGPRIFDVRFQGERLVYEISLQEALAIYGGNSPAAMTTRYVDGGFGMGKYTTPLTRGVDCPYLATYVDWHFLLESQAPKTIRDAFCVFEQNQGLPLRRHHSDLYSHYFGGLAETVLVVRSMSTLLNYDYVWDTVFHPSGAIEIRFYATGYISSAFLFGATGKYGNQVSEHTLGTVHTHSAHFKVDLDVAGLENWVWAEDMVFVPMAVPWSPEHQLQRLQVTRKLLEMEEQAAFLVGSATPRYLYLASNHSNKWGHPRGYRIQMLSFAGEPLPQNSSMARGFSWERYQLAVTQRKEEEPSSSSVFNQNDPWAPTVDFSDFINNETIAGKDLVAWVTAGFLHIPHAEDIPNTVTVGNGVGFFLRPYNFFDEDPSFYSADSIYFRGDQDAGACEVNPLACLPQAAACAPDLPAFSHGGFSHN
# Protocol Text: Inhibition of human recombinant SSAO/VAP-1 (Amplex Red fluorometric assay)
# Conditions: 30 min incubation, 37° C., benzylamine substrate
Quantity: IC50

// below: answered molecules
Molecule: CS(=O)(=O)c1ccc(OC/C(=C/F)CN)cc1 [Compound 12]
IC50: < 10 nM
//
Molecule: N#Cc1ccc(OC/C(=C/F)CN)cc1 [Compound 1]
IC50: < 10 nM
//
Molecule: NC/C(=C\F)COc1ccc(C(F)(F)F)cc1 [Compound 11]
IC50: < 10 nM
//
Molecule: NC/C(=C\F)COc1ccccc1 [Compound 10]
IC50: 10 to 500 nM

Lookup result for N#Cc1ccc(OC/C(=C\F)CN)cc1 [Compound 6] ; measured IC50: < 10 nM

// Cc1cc(OC/C(=C/F)CN)ccc1C#N [Compound 5] : IC50 value = < 10 nM

COc1ccc(OC/C(=C\F)CN)cc1 [Compound 14] yielded IC50 of < 10 nM

Entry under test: N#Cc1cccc(OC/C(=C/F)CN)c1 [Compound 9] . Its IC50 was < 10 nM

Lab book: IC50 of NC/C(=C\F)COc1ccc(OC(F)(F)F)cc1 [Compound 13] noted as < 10 nM

IC50 in this record for N#Cc1ccccc1OC/C(=C/F)CN [Compound 8] : > 1000 nM

Origin of values: patent US12428370B2
